Molecular target: T1, rat GLP-1 receptor (rGLP-1r) (Rattus norvegicus, UniProt P32301)
T1 construct: expressed in transfected cells; host or cells: HEK293s or CHO cells
T1 sequence (P32301 22-463): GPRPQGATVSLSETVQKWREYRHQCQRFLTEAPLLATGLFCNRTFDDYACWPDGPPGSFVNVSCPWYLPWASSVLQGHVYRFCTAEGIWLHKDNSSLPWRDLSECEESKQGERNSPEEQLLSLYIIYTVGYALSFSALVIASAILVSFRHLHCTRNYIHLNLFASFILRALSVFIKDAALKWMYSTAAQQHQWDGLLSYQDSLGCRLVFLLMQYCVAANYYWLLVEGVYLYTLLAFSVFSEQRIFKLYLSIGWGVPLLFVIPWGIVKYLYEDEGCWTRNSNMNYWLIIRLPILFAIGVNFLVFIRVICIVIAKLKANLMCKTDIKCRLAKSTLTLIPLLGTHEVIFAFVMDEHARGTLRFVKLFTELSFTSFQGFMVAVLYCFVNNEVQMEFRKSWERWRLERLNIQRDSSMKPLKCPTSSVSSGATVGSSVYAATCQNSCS
Assay: BSA-cAMP assay, cells expressing rat GLP-1 receptor
Format: cell-based
Conditions: Batch 1; BSA-cAMP assay; read-out: rGLP1r cAMP activity EC50

{"columns": ["MOLECULE", "EC50 [nM]"],
 "data": [
  ["IP401 (protein) YSEGTHTSDLSKLLERQAIDEFIAWLLKGGAAAGGSGSTASSGSGSATGGGGAATHTCPPC", 0.073],
  ["IP315 (protein) YSEGTFISDYSSYLERQAIDEFIAWLLKGGAAAGGSGSTASSGSGSATGGGGAATHTCPPC", 13],
  ["IP366 (protein) YSEGTFTSDYRMLKERQAIDEFIAWLLKGGAAAGGSGSTASSGSGSATGGGGAATHTCPPC", 14]
]}
